- Test system: Felis catus
- procedureSummary: Maximum decrease in sympathetic nerve discharge(SND) observed at 1 mg/kg dose in cat
- Format: functional
- Set-up: scale not given: the % may be the effect or the level left
parameterMeasured: Control (%)
Give the value in % but do not write % after it.

O=C1CC2(CCCC2)CC(=O)N1CCCCN1CCN(c2ncccn2)CC1; 43
CCCN(CCC)[C@H]1CCc2ccc3[nH]c(C(N)=O)cc3c2C1; 10
CCCN(CCCCN1C(=O)CC(C)(C)CC1=O)[C@@H]1CCc2ccc3[nH]c(C(N)=O)cc3c2C1; 22
CCCN(CCCCN1C(=O)CC(C)(C)CC1=O)[C@@H]1CCc2ccc3[nH]c(C#N)cc3c2C1; 0

Next:
Field Control (entry CCCN(CCC)[C@H]1CCc2ccc3[nH]c(C#N)cc3c2C1 ) reads 0
